Test system: OVCAR-5 complex spheroids, viability
Assay: Anticancer human tumor OVCAR-5 cell line growth inhibition;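 further: spheroids exposed to agents for seven days; 100% = DMSO vehicle control wells viability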
Conditions: second compound 0.1 µM; first compound 0.03 µM; active compounds read low
Measured Quantity: viability, T/C (%)

Compound | Reported Result
O=C(C=Cc1cccc(S(=O)(=O)Nc2ccccc2)c1)NO + NC1CCC(NC2CC2c2ccccc2)CC1 | 92.8
Nc1ccn(C2OC(CO)C(O)C2(F)F)c(=O)n1 (configuration not stated) + NC1CC1c1ccc(-c2cccc(O)c2)cc1 | 27.9
CCN(c1cc(-c2ccc(CN3CCOCC3)cc2)cc(C(=O)NCc2c(C)cc(C)[nH]c2=O)c1C)C1CCOCC1 + NC1CCC(NC2CC2c2ccccc2)CC1 | 110
CCc1c2c(nc3ccc(O)cc13)-c1cc3c(c(=O)n1C2)COC(=O)[C@]3(O)CC + NC1CCC(NC2CC2c2ccccc2)CC1 | 4.18
NS(=O)(=O)OCC1CC(n2ccc3c(NC4CCc5ccccc54)ncnc32)CC1O (configuration not stated) + NC1CC1c1ccc(-c2cccc(O)c2)cc1 | 133
COc1cc(C2c3cc4c(cc3C(OC3OC5COC(C)OC5C(O)C3O)C3COC(=O)C23)OCO4)cc(OC)c1O (configuration not stated) + NC1CC1c1ccc(-c2cccc(O)c2)cc1 | 93.3
Nc1ccccc1NC(=O)c1ccc(CNC(=O)OCc2cccnc2)cc1 + NC1CC1c1ccc(-c2cccc(O)c2)cc1 | 71.6
